# tested system: T1, ATG8A (purified) (Arabidopsis thaliana, UniProt Q8LEM4 1-117)
# T1 construct: ATG8A, Arabidopsis thaliana; 3C site after the His6 tag; 15N-labelled or unlabelled in NMR; also called HIS6-3C-ATG8A; source: E. coli Rosetta2 (DE3) pLysS, purified (HisTrap, ion exchange, SEC)
# T1 sequence (looked up): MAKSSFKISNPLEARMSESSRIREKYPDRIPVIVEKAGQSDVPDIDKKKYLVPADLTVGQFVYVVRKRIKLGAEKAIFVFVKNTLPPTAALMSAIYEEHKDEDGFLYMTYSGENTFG
# protocol: fluorescence polarisation; fluorescence anisotropy; ATG8A or AtUFM1 (250 nM-320 μM) added to 50 nM TAMRA-labeled peptide, 10 min at 4°C
# stated conditions: both partners purified
No end group written: not given here. TAMRA = 5(6)-carboxytetramethylrhodamine
readout type: Kd (µM)
Field format: number, assumed µM, no unit text.

// Kd value for {TAMRA}-AADSIDWDITVETPEIDWDVSMVEEV [sAIM1,2 peptide (AtC53 IDR-derived peptide that covers both sAIM1 and sAIM2)] : 26.5
